- Tested on: Staphylococcus epidermidis
- TEST_SUMMARY: Antimicrobial activity against Staphylococcus epidermidis ATCC 12228 assessed as reduction in bacterial growth at 16 to 64 uM incubated for 16 hrs by broth dilution method
- Format: functional, organism-based
Calls of active or inactive are those of the source. The calls are words filed in the database; no cut-off is given here.
Parameter call: string, one of yes (1) for active, no (0) for inactive

Exam item: Kindly provide the recorded test outcome for the following molecule: C[C@]12C=C[C@@]3(CC[C@@H]4[C@@](C)(COC(=O)CCC(=O)OC[C@@]5(C)CCC[C@]6(C)[C@@H]5CC[C@@]57C=C[C@@](C)(CC[C@H]56)C7)CCC[C@@]4(C)[C@@H]3CC1)C2
Marked response: no (0)

Exam item: Ok, now C[C@]12C=C[C@@]3(CC[C@@H]4[C@@](C)(COC(=O)C(=O)OC[C@@]5(C)CCC[C@]6(C)[C@@H]5CC[C@@]57C=C[C@@](C)(CC[C@H]56)C7)CCC[C@@]4(C)[C@@H]3CC1)C2
Marked response: no (0)

Exam item: Ok, now C[C@]12C=C[C@@]3(CC[C@@H]4[C@@](C)(COC(=O)CC(=O)O)CCC[C@@]4(C)[C@@H]3CC1)C2
Marked response: yes (1)

Exam item: Ok, now C[C@]12C=C[C@@]3(CC[C@@H]4[C@@](C)(CO)CCC[C@@]4(C)[C@@H]3CC1)C2
Marked response: no (0)

Exam item: Ok, now C[C@]12C=C[C@@]3(CC[C@@H]4[C@@](C)(COC(=O)CC(=O)OC[C@@]5(C)CCC[C@]6(C)[C@@H]5CC[C@@]57C=C[C@@](C)(CC[C@H]56)C7)CCC[C@@]4(C)[C@@H]3CC1)C2
Marked response: no (0)
